Data origin: the Biogen ADME set (Fang et al. 2023)

Kind request: treat 0.9 as inclusive, so MDR1-MDCK efflux ratio at 0.9 or higher is true, anything lower is false.

Tell me whether MDR1-MDCK efflux ratio is at least 0.9 here: c1ccc(-c2nc(CSc3ccc(-n4cccn4)nn3)cs2)cc1
false

Tell me whether MDR1-MDCK efflux ratio is at least 0.9 here: CCN(C(C)=O)c1ccc(C)cc1C(=O)O
false

Tell me whether MDR1-MDCK efflux ratio is at least 0.9 here: CNC(=O)Cn1ccc2cc(OC)ccc21
false

----------
Details: pH 6.8
Kind request: treat 30 µg/mL as inclusive, so aqueous solubility at 30 µg/mL or higher is yes (1), anything lower is no (0).

Here's what some known entries look like.
| compound | label_value |
| --- | --- |
| O=C(c1ccco1)N1CCCC(C(=O)N2CCc3ccccc3C2)C1 (configuration not stated) | yes (1) |
| CCc1cc(CN(C)c2nccc(-c3ccc(C)nc3C)n2)on1 | yes (1) |
| N#Cc1c(O)c(Cl)c(Cl)c(C#N)c1Cl | yes (1) |

Tell me whether aqueous solubility is at least 30 µg/mL here: Cc1cc(-c2nnc3ccc4ccccc4n23)n(C)n1
no (0)

Tell me whether aqueous solubility is at least 30 µg/mL here: CNc1ncc(-c2nc(C3(c4ccccc4)CC3)nn2C(C)(C)C)cn1
no (0)

Tell me whether aqueous solubility is at least 30 µg/mL here: CCCc1n[nH]c2c1C(C1CC=CCC1)C(C#N)=C(N)O2 (configuration not stated)
no (0)

Tell me whether aqueous solubility is at least 30 µg/mL here: COc1cccc(-c2ccc(C(=O)N(C)Cc3c(C)nn(C(C)C)c3C)o2)c1
yes (1)

Tell me whether aqueous solubility is at least 30 µg/mL here: Cc1c(Cl)ccc2cc3n(c12)[C@@H](C)CNC3=O
yes (1)

----------
recorded_endpoint: intrinsic clearance, human liver microsomes

Reference set, count: 5
| molecule | result |
| --- | --- |
| CN(Cc1ccc(N)nc1)c1nc(C(F)(F)F)cs1 | ≤ 4.74 mL/min/kg |
| Cc1ccccc1S(=O)(=O)N[C@@H]1CC[C@@H](O)[C@@H]1O | ≤ 4.74 mL/min/kg |
| COc1ccc(CCC(=O)N2CCCNCC2)cc1 | ≤ 4.74 mL/min/kg |
| O=C(CCc1cn[nH]c1)NCCCn1cc(Cl)cn1 | ≤ 4.74 mL/min/kg |
| Cn1cc(-c2cccc3c(C(N)=O)cccc23)cn1 | ≤ 4.74 mL/min/kg |

Output measured intrinsic clearance, human liver microsomes for this item: CC(C)c1noc2nc(C3CC3)cc(C(=O)N3CC[C@H](N)C3)c12
≤ 4.74 mL/min/kg

Output measured intrinsic clearance, human liver microsomes for this item: CCc1c(-c2ccccc2)[n+]([O-])c2c([n+]1[O-])CCCCC2
8.95 mL/min/kg

Output measured intrinsic clearance, human liver microsomes for this item: Cn1c(-c2n[nH]c3c2CCCC3)nnc1N1CCC2(CNC(=O)C2)C1 (configuration not stated)
≤ 4.74 mL/min/kg

Output measured intrinsic clearance, human liver microsomes for this item: COc1ccc(C(=O)N2CCCC2)cc1NC(=O)c1cc(F)c(F)c(F)c1F
≤ 4.74 mL/min/kg

Output measured intrinsic clearance, human liver microsomes for this item: O=C(Cc1c(F)cccc1Cl)Nc1cccc2cnccc12
62.6 mL/min/kg

Output measured intrinsic clearance, human liver microsomes for this item: Cc1nc2ccccc2c(C(=O)O)c1C
≤ 4.74 mL/min/kg

Output measured intrinsic clearance, human liver microsomes for this item: CC1(C)CC(=O)c2c(C(F)(F)F)nn(-c3ccc(C(N)=O)c(N[C@H]4CC[C@H](OC(=O)CN)CC4)c3)c2C1
204 mL/min/kg
